Reported mass density values for the following compounds.
experimental.conditions: 358.15 K; 100 kPa; Liquid; Vibrating tube method
Please reply with the bare figure in kg/m3 and do not write the unit itself.

smiles=CCCC[N+](C)(C)CC.O=S(=O)([N-]S(=O)(=O)C(F)(F)F)C(F)(F)F reported_measurement=1319.9
smiles=CC[N+](CCO)(CCO)CCO.O=S(=O)([N-]S(=O)(=O)C(F)(F)F)C(F)(F)F reported_measurement=1477.9
smiles=C[N+](CCO)(CCO)CCO.O=S(=O)([N-]S(=O)(=O)C(F)(F)F)C(F)(F)F reported_measurement=1513.6
smiles=CC[N+](C)(CCO)CCO.O=S(=O)([N-]S(=O)(=O)C(F)(F)F)C(F)(F)F reported_measurement=1462.6
smiles=CC[N+](C)(C)CCCO.O=S(=O)([N-]S(=O)(=O)C(F)(F)F)C(F)(F)F reported_measurement=1411.7

Request: What mass density value was documented for this compound, CC[N+](C)(C)CCOC.O=S(=O)([N-]S(=O)(=O)C(F)(F)F)C(F)(F)F ?
Result: 1376

Request: Please do the same for CCCC[N+](CCO)(CCO)CCO.O=S(=O)([N-]S(=O)(=O)C(F)(F)F)C(F)(F)F as well.
Result: 1405.2

* * *

experimental.conditions: 313.15 K; 100 kPa; Liquid; Frequency=0.0006 MHz; Alternating current cell with electrodes
measure: log10(electrical conductivity) (log10 of the value in S/m)
All values: log10 electrical conductivity [S/m].

smiles=CC[N+](C)(C)CCCO.O=S(=O)([N-]S(=O)(=O)C(F)(F)F)C(F)(F)F reported_measurement=-0.60

Request: What log10(electrical conductivity) value was documented for this compound, CC[N+](C)(CCO)CCO.O=S(=O)([N-]S(=O)(=O)C(F)(F)F)C(F)(F)F ?
Result: -0.78

Request: Please do the same for CCCC[N+](CCO)(CCO)CCO.O=S(=O)([N-]S(=O)(=O)C(F)(F)F)C(F)(F)F as well.
Result: -1.34

Request: Please do the same for CC[N+](CCO)(CCO)CCO.O=S(=O)([N-]S(=O)(=O)C(F)(F)F)C(F)(F)F as well.
Result: -1.15

Request: Please do the same for CCCC[N+](C)(C)CC.O=S(=O)([N-]S(=O)(=O)C(F)(F)F)C(F)(F)F as well.
Result: -0.47

Request: Please do the same for CC[N+](C)(C)CCOC.O=S(=O)([N-]S(=O)(=O)C(F)(F)F)C(F)(F)F as well.
Result: -0.31

Request: Please do the same for C[N+](CCO)(CCO)CCO.O=S(=O)([N-]S(=O)(=O)C(F)(F)F)C(F)(F)F as well.
Result: -1.05

* * *

experimental.conditions: 291.15 K; 100 kPa; Liquid; Vibrating tube method
Reported mass density values for the following compounds.
Please reply with the bare figure in kg/m3 and do not write the unit itself.

smiles=CC[N+](C)(C)CCCO.O=S(=O)([N-]S(=O)(=O)C(F)(F)F)C(F)(F)F measure="mass density" reported_measurement=1469.6
smiles=CC[N+](CCO)(CCO)CCO.O=S(=O)([N-]S(=O)(=O)C(F)(F)F)C(F)(F)F measure="mass density" reported_measurement=1535.9
smiles=CC[N+](C)(C)CCOC.O=S(=O)([N-]S(=O)(=O)C(F)(F)F)C(F)(F)F measure="mass density" reported_measurement=1437.6
smiles=CCCC[N+](CCO)(CCO)CCO.O=S(=O)([N-]S(=O)(=O)C(F)(F)F)C(F)(F)F measure="mass density" reported_measurement=1462.7
smiles=CCCC[N+](C)(C)CC.O=S(=O)([N-]S(=O)(=O)C(F)(F)F)C(F)(F)F measure="mass density" reported_measurement=1377.9
smiles=C[N+](CCO)(CCO)CCO.O=S(=O)([N-]S(=O)(=O)C(F)(F)F)C(F)(F)F measure="mass density" reported_measurement=1573.1

Request: What mass density value was documented for this compound, CC[N+](C)(CCO)CCO.O=S(=O)([N-]S(=O)(=O)C(F)(F)F)C(F)(F)F ?
Result: 1521.7

* * *

experimental.conditions: 293.15 K; 100 kPa; Liquid; Frequency=0.0006 MHz; Alternating current cell with electrodes
Reported electrical conductivity values for the following molecules.
Please reply with the bare figure in S/m and do not write the unit itself.

See these solved cases before continuing.
smiles=CC[N+](CCO)(CCO)CCO.O=S(=O)([N-]S(=O)(=O)C(F)(F)F)C(F)(F)F measure="electrical conductivity" reported_measurement=0.018
smiles=CCCC[N+](C)(C)CC.O=S(=O)([N-]S(=O)(=O)C(F)(F)F)C(F)(F)F measure="electrical conductivity" reported_measurement=0.143
smiles=CC[N+](C)(C)CCCO.O=S(=O)([N-]S(=O)(=O)C(F)(F)F)C(F)(F)F measure="electrical conductivity" reported_measurement=0.095
smiles=CC[N+](C)(C)CCOC.O=S(=O)([N-]S(=O)(=O)C(F)(F)F)C(F)(F)F measure="electrical conductivity" reported_measurement=0.23
smiles=C[N+](CCO)(CCO)CCO.O=S(=O)([N-]S(=O)(=O)C(F)(F)F)C(F)(F)F measure="electrical conductivity" reported_measurement=0.025
smiles=CCCC[N+](CCO)(CCO)CCO.O=S(=O)([N-]S(=O)(=O)C(F)(F)F)C(F)(F)F measure="electrical conductivity" reported_measurement=0.011

Attention now turns to another entry.
Request: What electrical conductivity value was documented for this molecule, CC[N+](C)(CCO)CCO.O=S(=O)([N-]S(=O)(=O)C(F)(F)F)C(F)(F)F ?
Result: 0.056

* * *

experimental.conditions: 345.15 K; 100 kPa; Liquid; Vibrating tube method
Reported mass density values for the following compounds.
Please reply with the bare figure in kg/m3 and do not write the unit itself.

smiles=CCCC[N+](CCO)(CCO)CCO.O=S(=O)([N-]S(=O)(=O)C(F)(F)F)C(F)(F)F reported_measurement=1416.1
smiles=CCCC[N+](C)(C)CC.O=S(=O)([N-]S(=O)(=O)C(F)(F)F)C(F)(F)F reported_measurement=1330.9

Request: What mass density value was documented for this compound, CC[N+](CCO)(CCO)CCO.O=S(=O)([N-]S(=O)(=O)C(F)(F)F)C(F)(F)F ?
Result: 1488.9

Request: Please do the same for CC[N+](C)(C)CCCO.O=S(=O)([N-]S(=O)(=O)C(F)(F)F)C(F)(F)F as well.
Result: 1422.7

Request: Please do the same for C[N+](CCO)(CCO)CCO.O=S(=O)([N-]S(=O)(=O)C(F)(F)F)C(F)(F)F as well.
Result: 1524.9

Request: Please do the same for CC[N+](C)(C)CCOC.O=S(=O)([N-]S(=O)(=O)C(F)(F)F)C(F)(F)F as well.
Result: 1387.7

Request: Please do the same for CC[N+](C)(CCO)CCO.O=S(=O)([N-]S(=O)(=O)C(F)(F)F)C(F)(F)F as well.
Result: 1473.7

* * *

experimental.conditions: 328.15 K; 100 kPa; Liquid; Concentric cylinders viscometry
± gives the expanded uncertainty stated by the source.
Reported viscosity values for the following compounds.

Request: What viscosity value was documented for this compound, CC[N+](C)(CCO)CCO.O=S(=O)([N-]S(=O)(=O)C(F)(F)F)C(F)(F)F ?
Result: 58.1 ± 2.3 mPa·s

* * *

experimental.conditions: 347.15 K; 100 kPa; Liquid; Vibrating tube method
measure: mass density (kg/m3)
Please reply with the bare figure in kg/m3 and do not write the unit itself.

See these solved cases before continuing.
smiles=CCCC[N+](C)(C)CC.O=S(=O)([N-]S(=O)(=O)C(F)(F)F)C(F)(F)F reported_measurement=1329.2
smiles=CC[N+](C)(C)CCCO.O=S(=O)([N-]S(=O)(=O)C(F)(F)F)C(F)(F)F reported_measurement=1421
smiles=CC[N+](CCO)(CCO)CCO.O=S(=O)([N-]S(=O)(=O)C(F)(F)F)C(F)(F)F reported_measurement=1487.2
smiles=CC[N+](C)(CCO)CCO.O=S(=O)([N-]S(=O)(=O)C(F)(F)F)C(F)(F)F reported_measurement=1472
smiles=CCCC[N+](CCO)(CCO)CCO.O=S(=O)([N-]S(=O)(=O)C(F)(F)F)C(F)(F)F reported_measurement=1414.5
smiles=C[N+](CCO)(CCO)CCO.O=S(=O)([N-]S(=O)(=O)C(F)(F)F)C(F)(F)F reported_measurement=1523.1

Attention now turns to another entry.
Request: What mass density value was documented for this compound, CC[N+](C)(C)CCOC.O=S(=O)([N-]S(=O)(=O)C(F)(F)F)C(F)(F)F ?
Result: 1385.8

* * *

experimental.conditions: 302.15 K; 100 kPa; Liquid; Vibrating tube method
measure: mass density (kg/m3)
Please reply with the bare figure in kg/m3 and do not write the unit itself.

smiles=CC[N+](C)(C)CCOC.O=S(=O)([N-]S(=O)(=O)C(F)(F)F)C(F)(F)F unit_info=kg/m3 reported_measurement=1427.2
smiles=CCCC[N+](C)(C)CC.O=S(=O)([N-]S(=O)(=O)C(F)(F)F)C(F)(F)F unit_info=kg/m3 reported_measurement=1368.1
smiles=C[N+](CCO)(CCO)CCO.O=S(=O)([N-]S(=O)(=O)C(F)(F)F)C(F)(F)F unit_info=kg/m3 reported_measurement=1563.2

Request: What mass density value was documented for this compound, CC[N+](CCO)(CCO)CCO.O=S(=O)([N-]S(=O)(=O)C(F)(F)F)C(F)(F)F ?
Result: 1526.2

Request: Please do the same for CCCC[N+](CCO)(CCO)CCO.O=S(=O)([N-]S(=O)(=O)C(F)(F)F)C(F)(F)F as well.
Result: 1453.1

Request: Please do the same for CC[N+](C)(C)CCCO.O=S(=O)([N-]S(=O)(=O)C(F)(F)F)C(F)(F)F as well.
Result: 1459.9

Request: Please do the same for CC[N+](C)(CCO)CCO.O=S(=O)([N-]S(=O)(=O)C(F)(F)F)C(F)(F)F as well.
Result: 1511.6
